# protocol.description: self-splicing fitness, log relative to wild type (ln ratio); higher = more splicing; Tetrahymena group I intron in knt gene, E. coli kanamycin selection, DiMSum; sequences stand for … in CUCUCU…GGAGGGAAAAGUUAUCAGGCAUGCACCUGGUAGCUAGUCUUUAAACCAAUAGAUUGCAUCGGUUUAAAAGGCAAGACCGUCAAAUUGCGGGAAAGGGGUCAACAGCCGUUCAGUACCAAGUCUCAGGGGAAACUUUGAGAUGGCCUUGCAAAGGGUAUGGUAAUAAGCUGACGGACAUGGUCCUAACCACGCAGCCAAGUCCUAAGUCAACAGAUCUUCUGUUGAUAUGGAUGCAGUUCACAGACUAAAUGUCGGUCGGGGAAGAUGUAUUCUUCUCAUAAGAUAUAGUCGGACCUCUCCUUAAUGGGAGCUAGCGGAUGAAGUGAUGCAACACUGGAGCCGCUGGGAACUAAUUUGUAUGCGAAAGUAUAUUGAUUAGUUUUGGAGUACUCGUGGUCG;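 further: selection with 25 µg/mL kanamycin versus none on LB agar overnight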
# protocol.conditions: 37 °C
measured.attribute: self-splicing fitness (ln)
Give the value as a plain number.

CAGUAGCAAUAUUACGAUGG: -0.119

Enquiry: For the sequence `GGCCAGCAAUAUUACGGCCU` , what self-splicing fitness (ln) is on record?
Return: -2.42

Enquiry: Now the same for `CAUAAGCAAUAUUACGGUAC`
Return: -2.14

Enquiry: Now the same for `UGUGAGCAAUAUUACGAAUU`
Return: -1.8

Enquiry: Now the same for `UGACAGCAAUAUUACGGGAC`
Return: -2.31

Enquiry: Now the same for `UCAAAGCAAUAUUACGAUUA`
Return: -1.16

Enquiry: Now the same for `GAUAAGCAAUAUUACGCGCG`
Return: 0.119

* * *

# protocol.description: self-splicing fitness, log relative to wild type (ln ratio); higher = more splicing; Tetrahymena group I intron in knt gene, E. coli kanamycin selection, DiMSum; sequences stand for … in CUCUCU…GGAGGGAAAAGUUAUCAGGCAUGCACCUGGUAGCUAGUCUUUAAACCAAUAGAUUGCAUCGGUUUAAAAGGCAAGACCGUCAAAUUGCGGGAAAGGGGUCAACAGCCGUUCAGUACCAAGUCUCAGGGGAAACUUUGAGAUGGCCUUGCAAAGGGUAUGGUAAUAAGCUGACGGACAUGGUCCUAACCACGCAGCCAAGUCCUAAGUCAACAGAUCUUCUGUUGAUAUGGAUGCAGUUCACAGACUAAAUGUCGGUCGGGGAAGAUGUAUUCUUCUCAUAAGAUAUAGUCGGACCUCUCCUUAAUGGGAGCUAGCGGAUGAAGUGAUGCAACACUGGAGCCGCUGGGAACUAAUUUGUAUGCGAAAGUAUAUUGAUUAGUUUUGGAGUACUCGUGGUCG
# protocol.conditions: 37 °C
Known self-splicing fitness (ln) of a selection of sequences

Example cases with answers are listed next.
UCUUAGCAAUAUUACGGGUU: -1.61
ACAUAGCAAUAUUACGCAGG: -2.23

Enquiry: For the sequence `AUGCAGCAAUAUUACGUGAU` , what self-splicing fitness (ln) is on record?
Return: -0.91

Enquiry: Now the same for `AUUAAGCAAUAUUACGCUUU`
Return: -1.24

Enquiry: Now the same for `CUAGAGCAAUAUUACGGGCA`
Return: -2.34

Enquiry: Now the same for `CCCGAGCAAUAUUACGGGUG`
Return: -1.7

Enquiry: Now the same for `CGUAAGCAAUAUUACGUUGA`
Return: -2.58

Enquiry: Now the same for `UAUGAGCAAUAUUACGUUAA`
Return: -2.59

* * *

# protocol.description: self-splicing fitness, log relative to wild type (ln ratio); higher = more splicing; Tetrahymena group I intron in knt gene, E. coli kanamycin selection, DiMSum; sequences stand for … in CUCUCU…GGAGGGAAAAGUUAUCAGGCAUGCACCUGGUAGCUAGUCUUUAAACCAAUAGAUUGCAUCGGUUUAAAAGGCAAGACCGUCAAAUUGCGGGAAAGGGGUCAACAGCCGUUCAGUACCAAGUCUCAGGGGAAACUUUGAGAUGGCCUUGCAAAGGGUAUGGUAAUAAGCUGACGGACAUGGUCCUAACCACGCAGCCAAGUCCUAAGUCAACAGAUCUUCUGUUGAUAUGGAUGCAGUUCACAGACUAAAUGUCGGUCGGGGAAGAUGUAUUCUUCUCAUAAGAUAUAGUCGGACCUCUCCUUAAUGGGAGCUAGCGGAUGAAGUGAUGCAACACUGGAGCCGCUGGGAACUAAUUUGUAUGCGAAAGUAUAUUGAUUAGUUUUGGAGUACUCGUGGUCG
# protocol.conditions: 37 °C
measured.attribute: self-splicing fitness (ln)
Give the value as a plain number.

Example cases with answers are listed next.
ACAUAGCAAUAUUACGCGAG: -0.654
GAACAGCAAUAUUACGAGCU: -1.18
AGACAGCAAUAUUACGCAUC: -2.18

Enquiry: For the sequence `CCCCAGCAAUAUUACGUGAC` , what self-splicing fitness (ln) is on record?
Return: -3.24

* * *

# protocol.description: self-splicing fitness, log relative to wild type (ln ratio); higher = more splicing; Tetrahymena group I intron in knt gene, E. coli kanamycin selection, DiMSum; sequences stand for … in CUCUCU…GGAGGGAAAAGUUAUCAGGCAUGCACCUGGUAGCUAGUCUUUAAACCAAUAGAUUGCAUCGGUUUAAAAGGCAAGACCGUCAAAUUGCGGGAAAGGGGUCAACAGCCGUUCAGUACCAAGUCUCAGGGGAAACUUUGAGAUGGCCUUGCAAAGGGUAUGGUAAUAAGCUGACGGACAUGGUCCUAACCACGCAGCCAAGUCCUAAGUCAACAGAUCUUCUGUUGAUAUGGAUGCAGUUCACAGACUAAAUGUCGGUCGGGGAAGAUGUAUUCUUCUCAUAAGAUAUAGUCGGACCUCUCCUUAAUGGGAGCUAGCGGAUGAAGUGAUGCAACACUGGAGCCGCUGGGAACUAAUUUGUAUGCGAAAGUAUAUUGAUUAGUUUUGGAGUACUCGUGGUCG
# protocol.conditions: 30 °C
Known self-splicing fitness (ln) of a selection of sequences

AUGUAGCAAUAUUACGCUCU: -1.95
CUACAGCAAUAUUACGCAGA: -3.97
UGGAAGCAAUAUUACGCGGC: -2.11
CACCAGCAAUAUUACGUGCC: -3.42
UAUCAGCAAUAUUACGGAAG: -0.901

Enquiry: For the sequence `UAAAAGCAAUAUUACGUACC` , what self-splicing fitness (ln) is on record?
Return: -2.18

Enquiry: Now the same for `CCUUAGCAAUAUUACGGACG`
Return: -1

Enquiry: Now the same for `GGUCAGCAAUAUUACGUUGC`
Return: -1.98

* * *

Known self-splicing fitness (ln) of a selection of sequences
# protocol.description: self-splicing fitness, log relative to wild type (ln ratio); higher = more splicing; Tetrahymena group I intron in knt gene, E. coli kanamycin selection, DiMSum; sequences stand for … in CUCUCU…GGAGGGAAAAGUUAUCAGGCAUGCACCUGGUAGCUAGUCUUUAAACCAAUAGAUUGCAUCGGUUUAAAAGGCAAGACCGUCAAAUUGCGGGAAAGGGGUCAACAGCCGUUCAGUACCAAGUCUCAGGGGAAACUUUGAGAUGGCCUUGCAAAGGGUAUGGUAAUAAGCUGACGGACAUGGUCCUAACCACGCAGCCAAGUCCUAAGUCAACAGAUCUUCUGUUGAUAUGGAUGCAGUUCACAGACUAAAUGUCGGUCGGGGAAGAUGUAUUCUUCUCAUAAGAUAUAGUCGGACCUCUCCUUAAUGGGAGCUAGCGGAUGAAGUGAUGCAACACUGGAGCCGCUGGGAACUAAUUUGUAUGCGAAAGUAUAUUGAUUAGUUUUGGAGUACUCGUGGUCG
# protocol.conditions: 30 °C
Give the value as a plain number.

UCAUAGCAAUAUUACGUAAU: -3.87

Enquiry: For the sequence `AGAAAGCAAUAUUACGGCCA` , what self-splicing fitness (ln) is on record?
Return: -0.632

* * *

# protocol.description: self-splicing fitness, log relative to wild type (ln ratio); higher = more splicing; Tetrahymena group I intron in knt gene, E. coli kanamycin selection, DiMSum; sequences stand for … in CUCUCU…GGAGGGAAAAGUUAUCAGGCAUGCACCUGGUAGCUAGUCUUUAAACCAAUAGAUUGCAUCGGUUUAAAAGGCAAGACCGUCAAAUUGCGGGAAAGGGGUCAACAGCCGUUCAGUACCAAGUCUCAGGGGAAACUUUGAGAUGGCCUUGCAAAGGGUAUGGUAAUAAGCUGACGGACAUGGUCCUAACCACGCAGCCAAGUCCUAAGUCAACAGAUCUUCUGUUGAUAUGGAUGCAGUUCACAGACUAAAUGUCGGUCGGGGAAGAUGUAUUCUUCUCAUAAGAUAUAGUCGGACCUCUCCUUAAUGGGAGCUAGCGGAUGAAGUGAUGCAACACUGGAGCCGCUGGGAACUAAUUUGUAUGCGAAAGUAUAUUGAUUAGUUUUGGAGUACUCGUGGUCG
# protocol.conditions: 30 °C
Binary classification by self-splicing fitness (ln), with -3 as an inclusive lower bound for rule met; all other cases are rule not met.

UCUAAGCAAUAUUACGGGAU: rule met
UCGUAGCAAUAUUACGUUUG: rule not met
GGUCAGCAAUAUUACGGGGA: rule met
CUGCAGCAAUAUUACGGACC: rule not met
AUCCAGCAAUAUUACGAAUA: rule met
GUACAGCAAUAUUACGAGCU: rule met

Enquiry: Please tell me: is the sequence `CGAGAGCAAUAUUACGGGGA` at or over -3 in terms of self-splicing fitness (ln)?
Return: rule not met

Enquiry: Now the same for `UAGGAGCAAUAUUACGUGAU`
Return: rule not met

Enquiry: Now the same for `UGGGAGCAAUAUUACGACUG`
Return: rule met

Enquiry: Now the same for `GCCUAGCAAUAUUACGACAC`
Return: rule met

Enquiry: Now the same for `AUAGAGCAAUAUUACGUCAC`
Return: rule met

Enquiry: Now the same for `GCGGAGCAAUAUUACGCGGU`
Return: rule met

Enquiry: Now the same for `AUCGAGCAAUAUUACGCUGC`
Return: rule met

Enquiry: Now the same for `UAAUAGCAAUAUUACGACCU`
Return: rule met

Enquiry: Now the same for `UAUGAGCAAUAUUACGCCAU`
Return: rule met

Enquiry: Now the same for `ACUGAGCAAUAUUACGCUCC`
Return: rule met

Enquiry: Now the same for `CCAUAGCAAUAUUACGAUUG`
Return: rule met
